So I've got a bunch of compounds here, and I need their inhibition values.
test system: ABHD11; test: LYPLA1 inhibition and serine hydrolase selectivity, late-stage follow-up, fluorescence, gel-based ABPP, mouse proteome (AID 504520); conditions: FP-rhodamine fluorescence, inhibition, at 0.15 µM, stronger effect = higher value;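 note: soluble proteome from BW5147 murine T cells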
Please respond with the number in % and leave the unit unwritten.

Exercise: Look up inhibition for this compound: "O=C(N(c1ccccc1)c1ccc(Br)cc1)n1ncc(C(O)(c2ccccc2)c2ccccc2)n1"
Key: 100

Exercise: Query: inhibition; subject: "O=C(N1CCc2ccccc2C1)n1ncc(C(O)(c2ccccc2)c2ccccc2)n1"
Key: 100

Exercise: Could you tell me which inhibition is on file for "O=C(N(c1ccccc1)c1ccccc1)n1ncc(C(O)(c2ccccc2)c2ccccc2)n1" ?
Key: 0

Exercise: Fill in the blank: the reported inhibition of CCC1CCCCN1C(=O)n1ncc(C(O)(c2ccccc2)c2ccccc2)n1 (stereo not given) is ____.
Key: 100

Exercise: Sample O=C(N1CCCC(Cc2ccccc2)C1)n1cc(C(O)(c2ccccc2)c2ccccc2)nn1 (stereo not given) — what was its inhibition?
Key: 100

Exercise: What measured inhibition goes with "O=C(N(c1ccccc1)c1cccc(Br)c1)n1ncc(C(O)(c2ccccc2)c2ccccc2)n1" ?
Key: 100

Exercise: Using the record for "O=C(N(c1ccccc1)c1ccccc1)n1ncc(-c2ccc(Oc3ccccc3)cc2)n1" , report its inhibition.
Key: 0

Exercise: Entry "CC1CCN(C(=O)n2ncc(C(O)(c3ccccc3)c3ccccc3)n2)CC1" has what inhibition?
Key: 100

Exercise: inhibition lookup needed for O=C(N1CCCCC1)n1ncc(C(O)c2ccccc2)n1 (stereo not given) , thanks.
Key: 100

Exercise: Value lookup for inhibition; key = "O=C(N(c1ccccc1)c1ccc2ccccc2c1)n1ncc(C(O)(c2ccccc2)c2ccccc2)n1"
Key: 100
